Experimental system: human TLR8 (Homo sapiens, UniProt Q9NR97)
Construct: host or cells: HEK-293, then stably transfected with pNiFty2(NF-kappaB)-luciferase reporter
Sequence (Q9NR97 27-1041): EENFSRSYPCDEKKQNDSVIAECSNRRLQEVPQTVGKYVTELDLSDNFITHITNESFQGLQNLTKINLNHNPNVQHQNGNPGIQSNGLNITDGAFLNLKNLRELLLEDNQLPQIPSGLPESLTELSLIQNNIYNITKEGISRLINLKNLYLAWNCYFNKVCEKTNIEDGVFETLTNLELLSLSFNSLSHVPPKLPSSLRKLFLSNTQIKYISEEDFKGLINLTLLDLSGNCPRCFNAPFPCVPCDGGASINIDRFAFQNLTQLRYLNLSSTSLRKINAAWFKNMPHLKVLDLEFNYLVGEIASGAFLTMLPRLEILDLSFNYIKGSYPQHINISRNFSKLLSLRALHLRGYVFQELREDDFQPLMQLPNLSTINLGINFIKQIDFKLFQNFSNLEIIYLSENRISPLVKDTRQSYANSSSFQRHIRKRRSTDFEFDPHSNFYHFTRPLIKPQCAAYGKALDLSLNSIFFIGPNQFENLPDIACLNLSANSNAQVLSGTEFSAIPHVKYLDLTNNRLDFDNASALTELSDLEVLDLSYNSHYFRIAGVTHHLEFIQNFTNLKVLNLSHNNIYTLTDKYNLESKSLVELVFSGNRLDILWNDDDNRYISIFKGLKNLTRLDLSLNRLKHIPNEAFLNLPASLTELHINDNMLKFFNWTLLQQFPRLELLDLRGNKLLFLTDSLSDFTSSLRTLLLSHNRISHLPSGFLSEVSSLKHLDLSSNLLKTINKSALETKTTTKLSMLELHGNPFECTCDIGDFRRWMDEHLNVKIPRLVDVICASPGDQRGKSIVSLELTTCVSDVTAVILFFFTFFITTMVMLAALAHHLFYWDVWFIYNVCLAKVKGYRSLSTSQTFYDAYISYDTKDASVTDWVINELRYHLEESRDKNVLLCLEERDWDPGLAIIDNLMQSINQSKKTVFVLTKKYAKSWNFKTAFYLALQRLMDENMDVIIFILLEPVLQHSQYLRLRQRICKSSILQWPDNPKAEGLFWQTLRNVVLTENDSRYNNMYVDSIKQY
Assay protocol: HEK-293 human TLR8 NF-kappaB luciferase reporter assay (CL097)
Assay type: cell-based
Assay conditions: HEK-293 assay format; read-out: HEK/hTLR8 IC50
Give log10 IC50 for every item shown.
Remember, log10 of IC50, in nM.

Completed entries (count: 5):
{"Compound": "C[C@@H]1CN(c2ccc(C#N)c3ncccc23)C[C@H](CF)O1", "log10 IC50": 1.40}
{"Compound": "C[C@@H]1CN(c2ccc(C#N)c3ncccc23)C[C@H](CN2CC(NC(=O)c3ccccc3)C2)O1", "log10 IC50": 2.06}
{"Compound": "C[C@@H]1CN(c2ccc(C#N)c3ncccc23)C[C@H](CN2CCN(c3ccccc3)CC2)O1", "log10 IC50": 2.24}
{"Compound": "CC1CNC(=O)CN1C[C@H]1CN(c2ccc(C#N)c3ncccc23)C[C@@H](C)O1 (some centres unmarked)", "log10 IC50": 1.32}
{"Compound": "CCOc1cccnc1NC[C@H]1CN(c2ccc(C#N)c3ncccc23)C[C@@H](C)O1", "log10 IC50": 0.26}

For every listed record, write down its log10 IC50.
1. CCC(=O)[C@H]1CN(c2ccc(C#N)c3ncccc23)C[C@@H](C)O1
2. C[C@@H]1CN(c2ccc(C#N)c3ncccc23)C[C@H](CN2CCCC2)O1
3. C[C@@H]1CN(c2ccc(C#N)c3ncccc23)C[C@H](CN2CCC(c3ccccc3)CC2)O1
4. CC1CN(c2ccc(C#N)c3ncccc23)CC(C(O)CCc2ccccc2)O1 (single isomer, unassigned) [ER-886568]
5. N#Cc1ccc(N2CCOC(CCl)C2)c2cccnc12 (centres unmarked)

1. 1.00
2. 2.26
3. 2.17
4. 0.70
5. 1.26

What the record says about CC1CN(c2ccc(C#N)c3ncccc23)CC(C(O)C2CCCCC2)O1 (single isomer, unassigned) [ER-886533] : log10 IC50 is 1.15
